- Assay summary: Ratio of drug level in brain to plasma of diet-induced obese C57BL/6J mouse model at 1 mg/kg, po administered as daily dose measured at 2 hrs post last dose on day 23
- Type: ADME, organism-based
- Experimental context: read-out: BPR
Measured property: Kp at 2 h
Please give the numeric answer without any surrounding text.

Kp at 2 h reading for O=c1cc(NC2CCN(S(=O)(=O)C(F)(F)F)CC2)c2cc(C(c3ccc(Cl)cc3)c3ccc(Cl)cc3)ccc2[nH]1 : 0.072

---

- Assay summary: Tmax in C57BL/6J mouse at 5 mg/kg, iv or 20 mg/kg, po administered via gavage by LC-MS/MS analysis
- Type: ADME, organism-based
- Experimental context: in vivo
Measured property: Tmax

Tmax reading for O=c1cc(NC2CCN(S(=O)(=O)C(F)(F)F)CC2)c2cc(C(c3ccc(Cl)cc3)c3ccc(Cl)cc3)ccc2[nH]1 : 2 h
